Test system: SK-OV-3 ovarian
ASSAY_METHOD_TEXT: NCI-60 one-dose screen, 48 h (100 = growth as untreated, 0 = no growth, -100 = all killed)
REPORTED_CONDITIONS: 10 µM
The panel holds about 83,000 compounds, 20% with a hit somewhere; the sample as a whole holds those more often.
Rule: growth under 50% gives Not met, otherwise Met.

Dear colleague, could you confirm whether "O=C(CNc1nnc(-c2cccnc2SCc2ccccc2)s1)Nc1nc(Cl)cc(Cl)n1" has growth at or above 50%?
Met

// query: "COc1cc2cc(Oc3ccc(NC(=O)Nc4cccc(C(F)(F)F)c4)cc3)c(C)nc2cc1OC"
Not met

// query: "CC(=O)Nc1ccc2c(c1)C(=O)c1cccc(C(=O)O)c1-2"
Met

// query: OCC1OC(n2ccc3c(NO)ncnc32)C(O)C1O (centres undefined)
Not met

// query: "COc1ccc(-c2onc(N)c2-c2cc(OC)c3c(c2)OCO3)cc1"
Not met

// query: COc1cc2c(cc1OC)C(C(CCCCCC(CCC(C)C)C1NCCc3cc(OC)c(OC)cc31)CCC(C)C)NCC2 (centres undefined)
Not met

// query: "C[C@@H](C[C@H](CCO)c1ccccc1)c1ccc2ccccc2c1"
Not met

// query: "COc1cc(C(=O)/C=C/c2c[nH]c3ccccc23)cc(OC)c1OC"
Not met

// query: "COc1ccc2nc(-c3ccc(Cl)cc3)cc(-c3nnc(SC/C(=N\O)c4ccccc4)n3-c3ccccc3)c2c1"
Met

// query: "O=C1CC(=O)N(C(=O)c2nn(-c3ccc(Cl)cc3)cc2O)N1"
Not met

// query: "CCN(CCCNc1cc2c(c(N)c1S(=O)(=O)O)C(=O)c1ccccc1C2=O)c1ccccc1"
Met

// query: "COc1ccc(-c2nn(-c3cccc(Cl)c3)cc2-c2c(C#N)c(=O)n3[nH]c(-c4ccc(C)cc4)nc3c2C#N)cc1"
Met

// query: "C[C@@H](O)[C@H]1C(=O)N2C(C(=O)O)=C(SCCN=CN)C[C@H]12"
Not met

// query: "O=S(=O)(O)c1cccc(Nc2ccc3ccccc3c2)c1"
Met

// query: COc1nc2c(c(=O)n1C)CN(c1ccccc1)C(=O)C(C)N2 (centres undefined)
Met

// query: "O=C(N/N=C/c1ccc([N+](=O)[O-])cc1)c1ccccc1Nc1cccc(C(F)(F)F)c1"
Met

// query: "CC(C)(C)OC(=O)N1CCc2c(sc3ncnc(N/N=C/c4ccccc4Br)c23)C1"
Met

// query: "CC(=O)Nc1cc2c(cc1Cl)Cc1cc(Cl)ccc1-2"
Met

====

Provide the reported growth of each item.
Tested on: RPMI-8226 leukemia
ASSAY_METHOD_TEXT: NCI-60 one-dose screen, 48 h (100 = growth as untreated, 0 = no growth, -100 = all killed)
REPORTED_CONDITIONS: 10 µM
The panel holds about 83,000 compounds, 20% with a hit somewhere; the sample as a whole holds those more often.
The reply should contain only the number, in %.

I am curious: what growth value has been reported for "CCOC(=O)C(C)(c1ccccc1)c1ccccc1" ?
101

// query: "CCOC(=O)Cn1c(=O)c2sc3ncccc3c2n2nnc(-c3ccccc3)c12"
94.7

// query: CCN1CC(CCN2CCOCC2)C(C(c2ccccc2)c2ccccc2)C1=O (stereo unspecified)
113

// query: "Cc1cc(=O)n2nnc3cc(Cl)c(Cl)cc3n12"
97.4

// query: "Cc1ccc(N=Nc2ccccc2)cc1"
100

// query: Cc1ccc(NCCN(C)CC(C)O)c2c(=O)c3ccc(Cl)cc3sc12 (stereo unspecified)
-8.72

The reported measurements were obtained from PubChem BioAssay (NCI).
